The values you see were collected from ChEMBL document CHEMBL3297698.

Tested on: Plasmodium falciparum
measurement protocol: Antimalarial activity against Plasmodium falciparum […] assessed as inhibition of [3H]hypoxanthine incorporation preincubated for 48 hrs measured 24 hrs post [3H]hypoxanthine addition by liquid scintillation counting
Format: functional, organism-based
property measured: IC50 (nM)

{"columns": ["compound structure string", "IC50 / nM"],
 "data": [
  ["CN(C)c1ccc2nc3ccc(=[N+](C)C)cc-3sc2c1", 4.2],
  ["CCNc1ccc2nc3c4ccccc4/c(=N/c4ccncc4)cc-3oc2c1", 7.5]
]}

a. Nc1ccc2nc3c4ccccc4/c(=N/c4ccncc4)cc-3oc2c1
b. CCN(CC)c1ccc2nc3c4ccccc4/c(=N\c4ccncc4)cc-3oc2c1
Lookup: Rank a against b by their IC50 values and give the higher one. Kindly give the label for the entry you pick.
Found: a
(a: 24 nM, b: 11 nM)
